System: SN12C
Experiment: NCI tumour cell line growth inhibition, 48 h
Calls of active or inactive are those of the source. No stated cut-off is given here; in the data, active = GI50 up to about 1.1 µM and inactive = higher.
Give GI50 for every item shown.

Q: Look up and report measured GI50 for this entry: CCOC(=O)C12C(=O)CCN1CCc1ccccc1C2C (stereo not drawn)
Result: > 100 µM (inactive)

Q: For Cc1cccc(NC2=NC(=O)C(CC(=O)Nc3cccc(C)c3C)S2)c1 (stereo not drawn) , write its GI50.
Result: > 100 µM (inactive)

Q: Note down GI50 recorded for C=C(CN(C)C)C(=O)c1ccc(OC2OC(COC(C)=O)C(OC(C)=O)C(OC(C)=O)C2OC(C)=O)cc1 (stereo not drawn)
Result: 9.98 µM (inactive)

###

System: CCRF-CEM
Experiment: NCI tumour cell line growth inhibition, 48 h
The source made the active and inactive calls. No stated cut-off is given here; in the data, active = GI50 up to about 1.1 µM and inactive = higher.
A correct response names exactly one class from active, inactive

Q: GET /call?item= CCOC(=O)/C(C(=S)NC)=C(/N)N1CCCC1 returns the recorded outcome of this test.
Result: inactive

Q: Test call, this molecule: COc1cc(O)c2c(=O)c3c(C)cccc3n(C)c2c1
Result: inactive

Q: State the result this test recorded for Nc1nc(SCCNC(=O)CCc2ccc(O)cc2)nc2c1ncn2C1OC(CO)C(O)C1O (configuration not stated) .
Result: inactive

Q: Field: outcome | Entry: Cc1ccc(C)c2c1CCc1cc3ccccc3nc1-2
Result: inactive

Q: What outcome does the record of this test show for O=C(C(=O)c1cc(-c2ccccc2)nc2ccc3ccccc3c12)c1ccccc1 ?
Result: inactive

Q: Short answer needed: outcome of this test for CN1CC2=C(N=C(S)NC2c2ccc(Cl)cc2)/C(=C/c2ccc(Cl)cc2)C1 (configuration not stated) ?
Result: inactive

Q: Given COc1ccccc1C1c2cc3c(cc2OC(N2CCCC2)C1C)OCO3 (configuration not stated) , state the outcome it received in this test.
Result: inactive

Q: Recorded call for O=C(OCc1ccccc1)N(CCCCN(CCCNCc1ccccc1)C(=O)OCc1ccccc1)CCCNCc1ccccc1 ?
Result: active

Q: Query: recorded result category for CCN(CC)P1(=S)Oc2ccc3ccccc3c2-c2c(ccc3ccccc23)O1 in this test
Result: inactive

Q: Record lookup: outcome of this test for COc1cc(C(=O)C/C(CCCC(=O)Nc2ccccc2[N+](=O)[O-])=N/NC(=O)c2cc3ccccc3cc2O)ccc1O ?
Result: inactive

Q: Just curious, what result did COc1cc2ccc(/C(C)=N/OC(C)=O)cc2cc1OC get here?
Result: inactive

Q: Can you look up the reported call for C[N+](C)=c1nc(N2CCOCC2)ss1 for me?
Result: inactive

###

Test system: NCI-H522
Test: NCI tumour cell line growth inhibition, 48 h
Calls of active or inactive are those of the source. No stated cut-off is given here; in the data, active = GI50 up to about 1.1 µM and inactive = higher.
ASSAY METRIC: GI50

Q: Lab note: NCI-H522 assay, enter GI50 for O=C(N/N=C1\CCc2ccccc21)N/N=C1\CCc2ccccc21 here
Result: > 100 µM (inactive)

Q: Report its GI50 with NCI-H522 as the test system: CCCCn1c(-c2ccccc2)cs/c1=N\NC(=O)Cn1c(C)nc2ccccc21
Result: 30.2 µM (inactive)

Q: Lab note: NCI-H522 assay, enter GI50 for CCOc1ccc2nc(NC(=O)C(=O)C(C(=O)c3ccccc3F)C3OC(=O)c4ccccc43)sc2c1 (stereo unspecified) here
Result: 14 µM (inactive)

Q: Return reported GI50 for target or system NCI-H522, item COc1ccc(-c2oc(/C=N/NC(N)=S)c([N+](=O)[O-])c2-c2ccc(OC)c(OC)c2)cc1OC .
Result: 23.6 µM (inactive)

Q: Given Cc1nc(NC(C)(CO)CO)nc(N/N=C/c2ccc(Cl)cc2)c1C(=O)Nc1ccc(Cl)cc1 , report its GI50 on NCI-H522.
Result: 48.1 µM (inactive)

Q: Give GI50 for CCOP1(=O)OCC2OC(n3cnc4c(N)ncnc43)C(O)C2O1.c1ccccc1 (stereo unspecified) tested on NCI-H522.
Result: > 100 µM (inactive)

Q: # return GI50 of CC[C@@]1(O)C(=O)OCc2c1cc1n(c2=O)Cc2c-1nc1ccccc1c2/C=N/NC(=O)c1ccc(N)cc1 (system: NCI-H522)
Result: < 0.0405 µM (active)

Q: # return GI50 of O=c1[nH]c(=O)n([C@@H]2O[C@H](CO)[C@@H](O)[C@@H]2F)cc1I [FIALURIDINE] (system: NCI-H522)
Result: > 100 µM (inactive)

Q: Enter measured GI50, system NCI-H522, for the compound shown: CC1=NN(C(=O)CSc2nnc(SCC(=O)N3N=C(C)CC3(O)c3ccccc3)s2)C(O)(c2ccccc2)C1 (stereo unspecified)
Result: 29.6 µM (inactive)

Q: Provide NCI-H522 GI50 reading for CCOC(=O)C(C#N)C1=CC(=O)C(=O)c2ccc(O)cc21 (stereo unspecified) .
Result: 26.9 µM (inactive)

Q: Find the measured GI50 of C/C=C1\NC(=O)[C@H](Cc2ccccc2)NC(=O)[C@@H](C(C)C)NC(=O)[C@@H]([C@@H](C)CC)NC(=O)[C@H](NC(=O)[C@H](NC(=O)[C@H](CCCN)NC(=O)[C@H]2CCCN2C(=O)[C@H](NC(=O)[C@@H](NC(=O)[C@@H](NC(=O)[C@H](NC(=O)CCCC(C)C)C(C)C)[C@@H](C)O)C(C)C)C(C)C)[C@@H](C)CC)[C@@H](C)OC(=O)[C@H](C(C)C)NC1=O with NCI-H522 as test system.
Result: 3.71 µM (inactive)

###

Tested on: MDA-N
Test: NCI tumour cell line growth inhibition, 48 h
The source made the active and inactive calls. Cut-off read from the data, not from the text of the source: active = GI50 up to about 1.1 µM and inactive = higher.
Exercise: for every item that follows, state its recorded GI50.

Q: Identify the reported GI50 for the following entry. COc1nc(N)c(NC2OC(CO)C(O)C2O)c(=O)[nH]1 (stereo not drawn)
Result: > 100 µM (inactive)

Q: Output measured GI50 for this item: c1ccc(CN2CCC(CNc3ncnc4ccccc34)C2)cc1 (stereo not drawn)
Result: 47.1 µM (inactive)

Q: Report measured GI50; entry is O=c1c2ccccc2nc(N/N=C/c2ccccc2O)n1-c1ccccc1
Result: 7.64 µM (inactive)

###

Test system: RXF 393
Test: NCI tumour cell line growth inhibition, 48 h
Calls of active or inactive are those of the source. Cut-off read from the data, not from the text of the source: active = GI50 up to about 1.1 µM and inactive = higher.
# valid calls are yes for active, no for inactive; nothing else

Q: What call does the record list for N=C(N)SCc1cccc(-c2nc3ccccc3c(=O)o2)c1 ?
Result: no

Q: For CC1=C(C#N)C2C(=C(C)N1)C(N)=Nc1ccccc12 (configuration not stated) , which call appears in the assay record?
Result: no

Q: Each compound tested received a call. Report the one for CC(=O)OC1C(O)C(C)OC(OC(=O)C2CCC3C(C2)OC2(CC(OC(=O)/C=C/c4ccccc4)C(C)CO2)C32CO2)C1OC1OC(C)C(O)C(O)C1O (configuration not stated) .
Result: yes

Q: Look up the recorded call for N/C(=N\O)N/N=C/c1ccc(C(F)(F)F)cc1 in this test.
Result: no

Q: Would you mind telling me which call this test gave S=c1nc(Nc2ccc(Cl)cc2)c2c3c(sc2[nH]1)CCCC3 ?
Result: no

Q: Could you check what this test reported for Nc1cc2c(nnn2C2OC(COCc3ccccc3)C(OCc3ccccc3)C2OCc2ccccc2)c(=O)[nH]1 (configuration not stated) ?
Result: no

Q: What did the test return for C/C(=C\CSCC(N)C(=O)O)CC/C=C(\C)CNc1ccccc1 (configuration not stated) ?
Result: no

###

System: PC-3
Experiment: NCI tumour cell line growth inhibition, 48 h
Activity calls are given as the source filed them. No stated cut-off is given here; in the data, active = GI50 up to about 1.1 µM and inactive = higher.
Returns: one label drawn from 1 for active, 0 for inactive

Q: Which result was noted for this molecule in the test: CC1(C)CC[C@]2(C(=O)O)CC[C@]3(C)C(=CC[C@@H]4[C@@]5(C)CC[C@@H]6OC(C)(C)OC[C@@]6(C)[C@@H]5CC[C@]43C)[C@H]2C1
Result: 0

Q: Assay result, entry COC(C(=O)NN)c1ccccc1 (stereo not drawn) — outcome?
Result: 0

Q: Fill in: this test's call for O=C(Cn1c2c(c3ccccc31)CCCC2)N1CCCC1 is ___
Result: 0

Q: Which result was noted for this molecule in the test: CC1=NN(c2cccc(Cl)c2)C2(C1=Cc1cccs1)C(Cl)C(=O)N2c1nc2ccccc2s1 (stereo not drawn)
Result: 0

Q: For O=C1CSC(=S)N1c1ccc(F)cc1F , which call appears in the assay record?
Result: 0

Q: Look up the recorded call for COc1ccc(N2C(=O)c3cccnc3S2(=O)=O)cc1 in this test.
Result: 0

Q: # fetch the recorded call for CCCC[C@H]1C(=O)O[C@H](C)[C@H](NC(=O)c2cccc(NC=O)c2OC)C(=O)O[C@@H](C)[C@@H]1OC(=O)C(C)CC.CCCC[C@H]1C(=O)O[C@H](C)[C@H](NC(=O)c2cccc(NC=O)c2OC)C(=O)O[C@@H](C)[C@@H]1OC(=O)CC(C)C (stereo partly drawn) here
Result: 0

Q: Call for entry COc1cc2nc(-c3ccccc3)cc(O)c2cc1OC :
Result: 0

Q: Assay result, entry CCCCCCNCCCNc1c2cc(OC)ccc2nc2cccc([N+](=O)[O-])c12 — outcome?
Result: 1

Q: How was CC1(c2ccc(Cl)cc2)CC(c2ccc(Cl)cc2)=C(C#N)C(=C(C#N)C#N)N1 (stereo not drawn) classified in this test?
Result: 0

Q: Entry O=C1Oc2ccccc2C(=O)/C1=C/N1C(=O)N/C(=C\c2ccccc2O)C1=O : call = ?
Result: 0

Q: Which result was noted for this molecule in the test: CC(C)CC(NP(=O)(O)OC1OC(C)C(O)C(O)C1O)C(=O)NC(Cc1c[nH]c2ccccc12)C(=O)O (stereo not drawn)
Result: 0

Q: What call does the record list for Cc1cc2nn(C3CCCO3)nc2cc1C (stereo not drawn) ?
Result: 0

Q: So what was the verdict on COC(=O)C#Cc1ccc([N+](=O)[O-])cc1 in this test?
Result: 0

Q: Could you please tell me the result logged for Cc1cc(=O)oc2cc(SC(=O)N(C)C)ccc12 in this assay?
Result: 0

Q: Please let me know the test result on file for O=[N+]([O-])c1cn[n+]([O-])c2ccccc12 .
Result: 0

Q: So what was the verdict on COC(=O)[C@H](C)[C@@H]1CC[C@](C)(CCC2=C(C)CCCC2(C)C)OO1 in this test?
Result: 0

Q: In this assay, the call recorded for O=C1Nc2ccc(Br)cc2/C1=N/N1C(=O)C(=O)N(C2CCCCC2)C1=S was what?
Result: 0

Q: State the result this test recorded for N#CC(C#N)[C@@H]1CCC=C(Sc2ccccc2)[C@H]1Sc1ccccc1 .
Result: 0

Q: Dear colleague, could you share the recorded outcome for O=c1c2c3c(sc2nc2n1N=C(c1ccc(Cl)cc1)CS2)CCCC3 when you have a moment?
Result: 0

Q: Hi, do you know how Nc1nc(S)c2c(N)n[nH]c2c1C(=O)Nc1ccc(Cl)cc1 came out in this test?
Result: 0

Q: What did the test return for CC(=O)n1[nH]c(=O)n(-c2ccc(Cl)cc2)c1=O ?
Result: 0

Q: Query: recorded result category for CC(=O)O[C@@H]1CN(S(=O)(=O)c2ccc(C)cc2)C[C@@H]1C1CCCCC1 in this test
Result: 0

Q: What outcome does the record of this test show for CC1=NN(C(=O)CSc2nnc(SCC(=O)N3N=C(C)CC3(O)c3ccccc3)s2)C(O)(c2ccccc2)C1 (stereo not drawn) ?
Result: 0

Q: Record lookup: outcome of this test for O=c1cc(NNc2ccccc2F)[nH]c(=O)[nH]1 ?
Result: 0

Q: Hey, what did the test say about CC1(C)OC(=O)N(c2ccccc2)C12C=Cc1cc([N+](=O)[O-])ccc1O2 (stereo not drawn) ?
Result: 0

Q: GET /call?item= CC(C)(C)OC(=O)NC(Cc1c[nH]cn1)C(=O)N1CCCC1C(N)=O (stereo not drawn) returns the recorded outcome of this test.
Result: 0

Q: I would be grateful if you could indicate the recorded call for C/C(=N\NC(=S)NCCCNC(=S)N/N=C(\C)c1ccccn1)c1ccccn1 .
Result: 0

Q: Any idea what this test logged for N#Cc1c(-c2ccccc2)c(/N=N/c2ccc(Cl)cc2)c(=O)n2c1[nH]c1ccccc12 ?
Result: 0

Q: Tell me the assay call for CC1=C(C#N)C2C(=C(C)N1)C(N)=Nc1ccccc12 (stereo not drawn) please.
Result: 0

Q: Hey, what did the test say about CC(C)OC(=O)C1=C2c3ncccc3C(=O)N2[C@@H](Cl)[C@@H](Cl)[C@@H]1Cl ?
Result: 0

Q: In this assay, the call recorded for Nc1ncnc2c1nc(O)n2-c1ccccc1 was what?
Result: 0

Q: # lookup: test call for C=CCC(SC)C1=C(C)C(=O)c2ccccc21 (stereo not drawn)
Result: 0
